Hey, just so you know, these numbers are from paper PMC4336329.

ASSAY SYSTEM: human ether-à-go-go-related gene (hERG) potassium channel (human)
ASSAY TEXT: primary screen, population patch clamp on CHO cells stably expressing hERG; higher = less effect of the substance
About 2,200 (0.71%) of roughly 310,000 compounds showed an effect of 50% or more. Effects have a minus sign here. The sample holds strong results, similar compounds and a random draw of the others, so the mix is not that of the screen.
EXPERIMENTAL READOUT: hERG current change (%, negative = inhibition) at 1uM (%)
Write the value in % as a bare number.

Sample answers from the record:
COc1ccc(CCn2c(=N)c(C(=O)NCCN3CCOCC3)cc3c(=O)n4cccc(C)c4nc32)cc1OC
-44.4
Cc1ccc(S(=O)(=O)NCC2COc3ccccc3O2)cc1 (centres unmarked)
6.71
Cc1cc(NC(=O)c2ccc3c(c2)C(=O)N(C)C3=O)no1
16.4
COC(=O)c1cc2sccc2n1CC(=O)Nc1ccc(OC)c(OC)c1OC
9.49

Tested on human ether-à-go-go-related gene (hERG) potassium channel (human), the item CC(Oc1ccccc1)C(=O)N=C1SC2CS(=O)(=O)CC2N1CCc1ccccc1 (centres unmarked) showed hERG current change (%, negative = inhibition) at 1uM equal to 8.75

* * *

Measured hERG current change (%, negative = inhibition) at 1uM, listed per entry for reference.
ASSAY SYSTEM: human ether-à-go-go-related gene (hERG) potassium channel (human)
ASSAY TEXT: primary screen, population patch clamp on CHO cells stably expressing hERG; higher = less effect of the substance
The campaign covered roughly 310,000 compounds. About 2,200 (0.71%) showed an effect of 50% or more. Effects have a minus sign here. The list comes from a sample in which strong results are over-represented; it also holds close analogues and randomly drawn compounds.
Write the value in % as a bare number.

Sample answers from the record:
CCN1CCN(c2nc(Nc3ccc(OC)cc3)nc(N)c2[N+](=O)[O-])CC1
1.06
CCN1CCN(c2nc(Nc3cccc(OC)c3)nc(N)c2[N+](=O)[O-])CC1
-60.6
CCCOC(=O)CCCN1C(=O)/C(=C2\SC(=S)N(CCCC(=O)OCCC)C2=O)SC1=S
16
CC1(C)CC(=O)C(C=NCCN2CCN(CC(=O)Nc3ccc(Cl)cc3)CC2)=C(O)C1
2.52

Please look at the following molecule next.
Tested on human ether-à-go-go-related gene (hERG) potassium channel (human), the item O=C(O)CCN(CCC(=O)O)c1nnc(SCc2ccccc2)s1 showed hERG current change (%, negative = inhibition) at 1uM equal to 11.7

* * *

ASSAY SYSTEM: human ether-à-go-go-related gene (hERG) potassium channel (human, UniProt Q12809)
Sequence (Q12809 whole entry, looked up): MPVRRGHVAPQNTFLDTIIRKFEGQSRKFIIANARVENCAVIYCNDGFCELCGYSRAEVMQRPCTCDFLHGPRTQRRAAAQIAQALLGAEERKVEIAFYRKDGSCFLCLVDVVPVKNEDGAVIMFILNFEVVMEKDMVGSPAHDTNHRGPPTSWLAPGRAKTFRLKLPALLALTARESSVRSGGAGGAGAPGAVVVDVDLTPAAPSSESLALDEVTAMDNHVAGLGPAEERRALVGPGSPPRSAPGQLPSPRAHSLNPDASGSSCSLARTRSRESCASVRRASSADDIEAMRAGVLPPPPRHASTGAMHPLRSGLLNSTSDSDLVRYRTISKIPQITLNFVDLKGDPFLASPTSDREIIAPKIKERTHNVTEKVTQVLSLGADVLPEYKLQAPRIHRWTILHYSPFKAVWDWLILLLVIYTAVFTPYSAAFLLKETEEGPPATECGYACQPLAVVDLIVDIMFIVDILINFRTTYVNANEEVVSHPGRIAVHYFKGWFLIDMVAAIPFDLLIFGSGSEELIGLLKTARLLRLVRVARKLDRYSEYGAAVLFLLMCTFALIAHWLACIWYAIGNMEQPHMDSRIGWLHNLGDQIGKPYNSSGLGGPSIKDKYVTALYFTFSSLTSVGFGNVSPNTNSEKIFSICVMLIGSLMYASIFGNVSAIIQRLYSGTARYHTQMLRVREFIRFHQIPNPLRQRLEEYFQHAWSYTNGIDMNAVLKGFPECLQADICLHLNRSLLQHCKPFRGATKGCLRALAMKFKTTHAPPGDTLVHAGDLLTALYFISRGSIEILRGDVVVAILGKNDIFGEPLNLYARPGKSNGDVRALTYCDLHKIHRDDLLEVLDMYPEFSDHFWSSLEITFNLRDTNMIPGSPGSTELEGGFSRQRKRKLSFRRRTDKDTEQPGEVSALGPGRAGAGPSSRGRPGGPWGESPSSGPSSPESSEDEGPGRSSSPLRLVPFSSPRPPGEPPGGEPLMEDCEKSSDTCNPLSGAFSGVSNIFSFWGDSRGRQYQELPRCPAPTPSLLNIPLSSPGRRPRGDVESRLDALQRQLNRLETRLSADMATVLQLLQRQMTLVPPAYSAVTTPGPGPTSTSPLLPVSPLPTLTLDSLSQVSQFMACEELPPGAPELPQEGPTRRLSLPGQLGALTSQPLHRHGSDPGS
ASSAY TEXT: primary screen, population patch clamp on CHO cells stably expressing hERG; higher = less effect of the substance
The campaign covered roughly 310,000 compounds. About 2,200 (0.71%) showed an effect of 50% or more. The effect is printed as a negative number. Many of the other results were omitted from the sample, so strong results are more common in it than they were.
EXPERIMENTAL READOUT: hERG current change (%, negative = inhibition) at 1uM (%)
Write the value in % as a bare number.

Sample answers from the record:
c1ccc(C(c2nnnn2C2CCCCC2)N2CCc3ccccc3C2)nc1 (centres unmarked)
7.86
O=C(CSC(=S)N1CCCCC1)c1c(F)cccc1F
21.7
Cc1cc(NC(=O)CSc2nc3c(c(=O)n2-c2ccc(Br)cc2)SCC3)no1
6.41

Short answer for CCn1c(=O)c(C(=O)CN(C)Cc2ccc(F)cc2)c(N)n(Cc2ccccc2)c1=O : hERG current change (%, negative = inhibition) at 1uM was -33.6

Short answer for Cn1c(CN2CCN(C(=O)c3ccccc3)CC2)nc2cc([N+](=O)[O-])ccc21 : hERG current change (%, negative = inhibition) at 1uM was -29.6

Short answer for CCOc1ccc(CN(C)CC(=O)c2c(N)n(Cc3ccccc3)c(=O)n(CC)c2=O)cc1OC : hERG current change (%, negative = inhibition) at 1uM was -82.5

Short answer for COc1ccc(Nc2nc(N3CCN(C)CC3)nc3ccccc23)c(OC)c1 : hERG current change (%, negative = inhibition) at 1uM was -76.6

Short answer for Cn1c(CCN2CCCC2)nc2cc(NS(=O)(=O)c3ccc(Cl)cc3)ccc21 : hERG current change (%, negative = inhibition) at 1uM was -62

* * *

ASSAY SYSTEM: human ether-à-go-go-related gene (hERG) potassium channel (human, UniProt Q12809)
ASSAY TEXT: primary screen, population patch clamp on CHO cells stably expressing hERG; higher = less effect of the substance
About 2,200 (0.71%) of roughly 310,000 compounds showed an effect of 50% or more. Effects have a minus sign here. For the sample, strong results were picked, then their nearest neighbours and some compounds at random.
Measured hERG current change (%, negative = inhibition) at 1uM, listed per entry for reference.
// unit must come after the numeric part

Sample answers from the record:
CCc1ccc(NC(=O)Nc2cc(C(=O)O)ccc2N2CC3CC(C2)c2cccc(=O)n2C3)cc1 (centres unmarked)
19.5%
OC(CN1CCN(c2ncc(C(F)(F)F)cc2Cl)CC1)c1ccccc1 (centres unmarked)
1.4%
CC(C(O)c1ccc(O)cc1)N1CCC(Cc2ccccc2)CC1.O=C(O)C(O)C(O)C(=O)O (centres unmarked)
-33.4%
Cl.OC(COCC1COc2ccccc2O1)CN1CCN(c2ccccc2)CC1 (centres unmarked)
-24.7%
CCN(CC)CCNC(C(=O)Nc1cc(C(F)(F)F)ccc1Cl)c1ccccc1 (centres unmarked)
-85.3%

Short answer for Cc1ccc(OCC(O)CN2CCN(CC(O)COc3ccc(C)cc3)CC2)cc1 (centres unmarked) : hERG current change (%, negative = inhibition) at 1uM was -8.83%

Short answer for N=c1c(C(=O)NC2CCCCC2)cc2c(=O)n3ccccc3nc2n1CCc1ccccc1 : hERG current change (%, negative = inhibition) at 1uM was -88.1%

Short answer for CC(=O)c1cccc(NC(=O)C(NC(C)C)c2ccccc2)c1 (centres unmarked) : hERG current change (%, negative = inhibition) at 1uM was 10%

Short answer for O=C(O)CN1CCN(c2ncc(C(F)(F)F)cc2Cl)CC1 : hERG current change (%, negative = inhibition) at 1uM was 12.6%

Short answer for COc1ccc(OCC(O)CN2CCc3ccccc3C2)cc1.Cl (centres unmarked) : hERG current change (%, negative = inhibition) at 1uM was -2.53%

Short answer for CC1CC(C)CN(Cc2nc(N)nc(Nc3ccc4ccccc4c3)n2)C1 (centres unmarked) : hERG current change (%, negative = inhibition) at 1uM was -61.1%

* * *

Measured hERG current change (%, negative = inhibition) at 1uM, listed per entry for reference.
ASSAY SYSTEM: human ether-à-go-go-related gene (hERG) potassium channel (human, UniProt Q12809)
ASSAY TEXT: primary screen, population patch clamp on CHO cells stably expressing hERG; higher = less effect of the substance
Screen size: about 310,000 compounds; about 2,200 (0.71%) showed an effect of 50% or more. The effect is printed as a negative number. Only a selection was taken, and strong results are over-represented in it overall.
Write the value in % as a bare number.

Sample answers from the record:
O=C(NC1CC2CCCC(C1)N2Cc1cccs1)c1ccc([N+](=O)[O-])cc1 (stereo not drawn)
-78.6
O=C(NC1CCN(Cc2cccc([N+](=O)[O-])c2)CC1)c1ccccc1
-3.19
O=C(NC1CC2CCCC(C1)N2Cc1ccccc1)c1ccc([N+](=O)[O-])cc1 (stereo not drawn)
-82.2
Cc1ccc(S(=O)(=O)Nc2ccc3c(c2)nc(CCN2CCCCC2)n3C)cc1
-29.7
N=c1c(S(=O)(=O)c2ccc(Cl)cc2)cc2c(=O)n3ccccc3nc2n1CC1CCCO1 (stereo not drawn)
6.52

Short answer for Cn1c(CCN2CCCCC2)nc2cc(NS(=O)(=O)c3ccc(Cl)cc3)ccc21 : hERG current change (%, negative = inhibition) at 1uM was -59.1
